target: Voltage-gated inwardly rectifying potassium channel KCNH2 (Homo sapiens, UniProt Q12809); settings: hek293; further: in other assays of this panel Not Active means under 50% inhibition at 10 µM
Sequence (Q12809 whole entry): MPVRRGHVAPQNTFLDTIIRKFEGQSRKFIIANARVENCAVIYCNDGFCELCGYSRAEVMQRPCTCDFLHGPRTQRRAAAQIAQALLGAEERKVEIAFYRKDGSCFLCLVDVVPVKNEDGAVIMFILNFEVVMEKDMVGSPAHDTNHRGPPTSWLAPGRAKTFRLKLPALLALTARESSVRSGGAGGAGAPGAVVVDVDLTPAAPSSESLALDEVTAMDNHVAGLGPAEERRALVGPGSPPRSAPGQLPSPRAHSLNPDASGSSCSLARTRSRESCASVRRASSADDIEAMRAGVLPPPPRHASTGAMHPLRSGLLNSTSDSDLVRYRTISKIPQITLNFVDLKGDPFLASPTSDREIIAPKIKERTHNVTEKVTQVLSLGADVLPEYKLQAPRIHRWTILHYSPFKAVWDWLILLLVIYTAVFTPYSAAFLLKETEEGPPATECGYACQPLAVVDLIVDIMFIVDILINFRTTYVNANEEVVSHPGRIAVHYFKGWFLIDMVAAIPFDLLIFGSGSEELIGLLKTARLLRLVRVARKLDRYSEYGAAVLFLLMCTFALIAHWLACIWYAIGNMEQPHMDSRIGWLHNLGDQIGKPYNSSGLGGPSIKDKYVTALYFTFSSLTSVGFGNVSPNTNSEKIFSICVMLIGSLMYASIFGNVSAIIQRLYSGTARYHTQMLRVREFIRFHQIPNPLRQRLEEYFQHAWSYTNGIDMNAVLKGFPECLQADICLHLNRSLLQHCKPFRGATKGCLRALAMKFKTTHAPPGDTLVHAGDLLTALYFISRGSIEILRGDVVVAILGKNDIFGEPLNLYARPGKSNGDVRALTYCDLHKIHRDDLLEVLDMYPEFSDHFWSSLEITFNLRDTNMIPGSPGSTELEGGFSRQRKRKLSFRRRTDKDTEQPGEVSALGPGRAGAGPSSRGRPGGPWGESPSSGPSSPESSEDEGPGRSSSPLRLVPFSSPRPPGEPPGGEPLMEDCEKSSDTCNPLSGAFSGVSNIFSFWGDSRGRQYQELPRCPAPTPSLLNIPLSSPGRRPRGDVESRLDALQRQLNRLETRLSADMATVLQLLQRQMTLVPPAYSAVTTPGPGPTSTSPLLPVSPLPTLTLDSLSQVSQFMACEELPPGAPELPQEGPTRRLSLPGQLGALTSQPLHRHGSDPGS
observed_property: Ki

molecule	observed_property	recorded_result
CC(C)Cc1ccc(C(C)C(=O)O)cc1 (stereo not drawn)	Ki	Not Active
CC1(C)O[C@@H]2C[C@H]3[C@@H]4C[C@H](F)C5=CC(=O)C=C[C@]5(C)[C@H]4[C@@H](O)C[C@]3(C)[C@]2(C(=O)CO)O1 [FLUNISOLIDE]	Ki	Not Active
C[C@@H]1C[C@@H]([C@H](O)CC2CC(=O)NC(=O)C2)C(=O)[C@@H](C)C1 [CYCLOHEXIMIDE]	Ki	Not Active
O=C(C1CCCCC1)N1CC(=O)N2CCc3ccccc3C2C1 (stereo not drawn)	Ki	Not Active
CN(C)/N=N/c1[nH]cnc1C(N)=O	Ki	Not Active
CCC1=C[C@@H]2CN(C1)Cc1c([nH]c3ccccc13)[C@@](C(=O)OC)(c1cc3c(cc1OC)N(C)[C@H]1[C@@](O)(C(=O)OC)[C@H](OC(C)=O)[C@]4(CC)C=CCN5CC[C@]31[C@@H]54)C2	Ki	Not Active
Cc1cc2cc3c(C)cc(=O)oc3c(C)c2o1	Ki	Not Active
C[C@@]12C(=O)OC(=O)[C@]1(C)[C@H]1CC[C@@H]2O1	Ki	Not Active
CCCN(CCC)C(=O)C(CCC(=O)O)NC(=O)c1ccccc1 (stereo not drawn) [PROGLUMIDE]	Ki	Not Active
COP(=O)(OC)OC=C(Cl)Cl	Ki	Not Active
CC(C)(C(=O)c1cccnc1)c1cccnc1	Ki	Not Active
CC(C)[C@H]1CC[C@H](C(=O)N[C@H](Cc2ccccc2)C(=O)O)CC1 [NATEGLINIDE]	Ki	Not Active
NC(=O)c1cnccn1 [PYRAZINAMIDE]	Ki	Not Active
CCCC(=O)Nc1ccc(OCC(O)CNC(C)C)c(C(C)=O)c1 (stereo not drawn)	Ki	Not Active
COCCOC(=O)C1=C(C)NC(C)=C(C(=O)OC(C)C)C1c1cccc([N+](=O)[O-])c1 (stereo not drawn)	Ki	Not Active
N[C@H](CSC(=S)NCc1ccccc1)C(=O)O	Ki	Not Active
NC(=O)NO [HYDROXYUREA]	Ki	Not Active
COCCCOc1ccnc(C[S+]([O-])c2nc3ccccc3[nH]2)c1C (stereo not drawn)	Ki	Not Active

* * *

target: Progesterone receptor (Bos taurus); assay: DRUGMATRIX: Progesterone radioligand binding (ligand: [3H] R-5020); type: tissue-based, Uterus; settings: Not Active = under 50% inhibition at 10 µM
Sequence (Q690N0 whole entry): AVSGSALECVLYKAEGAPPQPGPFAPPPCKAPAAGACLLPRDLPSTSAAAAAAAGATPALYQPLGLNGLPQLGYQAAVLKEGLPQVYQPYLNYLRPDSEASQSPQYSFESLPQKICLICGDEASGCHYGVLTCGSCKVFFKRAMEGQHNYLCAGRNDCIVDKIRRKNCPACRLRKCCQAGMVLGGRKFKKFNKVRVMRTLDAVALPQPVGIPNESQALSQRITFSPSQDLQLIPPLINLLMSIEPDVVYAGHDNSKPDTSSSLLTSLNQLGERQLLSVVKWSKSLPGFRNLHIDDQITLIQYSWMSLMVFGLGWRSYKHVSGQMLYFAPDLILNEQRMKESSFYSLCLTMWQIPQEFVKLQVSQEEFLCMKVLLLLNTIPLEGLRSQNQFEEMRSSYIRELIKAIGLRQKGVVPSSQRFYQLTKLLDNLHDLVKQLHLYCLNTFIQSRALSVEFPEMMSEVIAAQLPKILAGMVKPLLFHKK
observed_property: IC50

In [3]: df
Out[3]:
                                    compound  recorded_result
 0  CCOC(=O)C1=C(C)NC(C)=C(C(=O)OC)C1c1cccc([N+](=O)[O-])c1 (stereo not drawn) [NITRENDIPINE]       Not Active
 1  CC(=O)CC(c1ccccc1)c1c(O)c2ccccc2oc1=O (stereo not drawn) [WARFARIN]       Not Active
 2  Cc1ncc([N+](=O)[O-])n1CCO [METRONIDAZOLE]       Not Active
 3  C[C@@]12C(=O)OC(=O)[C@]1(C)[C@H]1CC[C@@H]2O1 [CANTHARIDIN]       Not Active
 4  C[C@](O)(CS(=O)(=O)c1ccc(F)cc1)C(=O)Nc1ccc(C#N)c(C(F)(F)F)c1 [(R)-BICALUTAMIDE]       Not Active
 5  COc1ccc2cc([C@H](C)C(=O)O)ccc2c1 [NAPROXEN]       Not Active
 6  O=C1CC2(CCCC2)CC(=O)N1CCCCN1CCN(c2ncccn2)CC1 [BUSPIRONE]       Not Active
 7  O=C(C1CCCCC1)N1CC(=O)N2CCc3ccccc3C2C1 (stereo not drawn) [PRAZIQUANTEL]       Not Active
 8  Nc1c(CC(=O)O)cccc1C(=O)c1ccc(Br)cc1 [BROMFENAC]       Not Active
 9  CC(=O)Nc1c(I)c(NC(C)=O)c(I)c(C(=O)O)c1I [DIATRIZOIC ACID]       Not Active
10   O=C1CC[C@H](N2C(=O)c3ccccc3C2=O)C(=O)N1       Not Active
11  Cc1cccc(Nc2ccncc2S(=O)(=O)NC(=O)NC(C)C)c1 [TORSEMIDE]       Not Active
12  O=C(c1ccc(OCCN2CCCCC2)cc1)c1c(-c2ccc(O)cc2)sc2cc(O)ccc12 [RALOXIFENE]       Not Active

* * *

molecular target: Mitogen-activated protein kinase 1 (Homo sapiens); assay: DRUGMATRIX: Protein Serine/Threonine Kinase, ERK2 enzyme inhibition (substrate: Myelin Basic Protein); set-up: species or system Escherichia coli; details: Not Active = under 50% inhibition at 10 µM
Sequence (P28482 whole entry): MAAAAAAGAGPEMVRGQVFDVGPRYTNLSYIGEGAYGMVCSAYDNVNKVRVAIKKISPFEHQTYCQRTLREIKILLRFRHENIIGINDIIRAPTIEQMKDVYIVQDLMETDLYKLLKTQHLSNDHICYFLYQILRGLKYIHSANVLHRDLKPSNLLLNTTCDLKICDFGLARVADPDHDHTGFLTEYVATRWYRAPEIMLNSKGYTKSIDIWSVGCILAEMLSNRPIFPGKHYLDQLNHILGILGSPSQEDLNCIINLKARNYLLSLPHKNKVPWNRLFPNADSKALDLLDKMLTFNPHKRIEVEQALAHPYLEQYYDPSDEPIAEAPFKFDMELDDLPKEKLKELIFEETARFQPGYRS
observed_property: IC50

compound	observed_property	recorded_result
C[N+](C)(C)CCO.[Cl-] [CHOLINE CHLORIDE]	IC50	Not Active
CC1(C)O[C@@H]2C[C@H]3[C@@H]4C[C@H](F)C5=CC(=O)C=C[C@]5(C)[C@H]4[C@@H](O)C[C@]3(C)[C@]2(C(=O)CO)O1 [FLUNISOLIDE]	IC50	Not Active
CCC1=C[C@@H]2CN(C1)Cc1c([nH]c3ccccc13)[C@@](C(=O)OC)(c1cc3c(cc1OC)N(C)[C@H]1[C@@](O)(C(=O)OC)[C@H](OC(C)=O)[C@]4(CC)C=CCN5CC[C@]31[C@@H]54)C2	IC50	Not Active

* * *

target: UniProt:P07550; assay: DRUGMATRIX: Adrenergic beta2 radioligand binding (ligand: [3H] CGP-12177); type: cell membranes, Membrane; conditions: cho; Not Active = under 50% inhibition at 10 µM
Sequence (P07550 whole entry): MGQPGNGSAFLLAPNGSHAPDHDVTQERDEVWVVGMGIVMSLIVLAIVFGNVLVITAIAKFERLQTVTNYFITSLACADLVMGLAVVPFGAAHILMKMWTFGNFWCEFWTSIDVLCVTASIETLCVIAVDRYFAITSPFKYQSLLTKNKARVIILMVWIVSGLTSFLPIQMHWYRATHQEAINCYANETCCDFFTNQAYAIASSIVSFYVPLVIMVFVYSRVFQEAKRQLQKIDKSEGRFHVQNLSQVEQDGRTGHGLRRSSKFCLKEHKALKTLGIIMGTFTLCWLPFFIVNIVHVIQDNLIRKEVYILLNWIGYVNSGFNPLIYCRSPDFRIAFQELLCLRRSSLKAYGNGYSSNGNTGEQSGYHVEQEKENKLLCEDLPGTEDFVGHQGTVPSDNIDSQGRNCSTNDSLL

compound	system	IC50
COc1cc2c(c3oc(=O)c4c(c13)CCC4=O)[C@@H]1C=CO[C@@H]1O2	UniProt:P07550	Not Active
CCOC(=O)C1=C(C)NC(C)=C(C(=O)OC)C1c1cccc([N+](=O)[O-])c1 (stereo not drawn)	UniProt:P07550	Not Active
CC[C@]1(O)C[C@@H]2CN(CCc3c([nH]c4ccccc34)[C@@](C(=O)OC)(c3cc4c(cc3OC)N(C)[C@H]3[C@@](O)(C(=O)OC)[C@H](OC(C)=O)[C@]5(CC)C=CCN6CC[C@]43[C@@H]65)C2)C1	UniProt:P07550	Not Active
O=C(C1CCCCC1)N1CC(=O)N2CCc3ccccc3C2C1 (stereo not drawn)	UniProt:P07550	Not Active
CC(=O)N1CCN(c2ccc(OCC3COC(Cn4ccnc4)(c4ccc(Cl)cc4Cl)O3)cc2)CC1 (stereo not drawn)	UniProt:P07550	Not Active
CC1=C(CC(=O)O)c2cc(F)ccc2/C1=C\c1ccc([S+](C)[O-])cc1 (stereo not drawn)	UniProt:P07550	Not Active
CC(C)[C@H]1CC[C@H](C(=O)N[C@H](Cc2ccccc2)C(=O)O)CC1 [NATEGLINIDE]	UniProt:P07550	Not Active
CCCCOc1ccc(OCCCN2CCOCC2)cc1	UniProt:P07550	Not Active

* * *

assay: DRUGMATRIX: Potassium Channel [KATP] radioligand binding (ligand: [3H] Glyburide); assay type: cell membranes, Membrane; conditions: hit-t15; Not Active = under 50% inhibition at 10 µM
observed_property: Ki

compound	observed_property	recorded_result
[Cl-].[Cl-].[Zn+2] [ZINC CHLORIDE]	Ki	Not Active
CC(C)(C(=O)c1cccnc1)c1cccnc1	Ki	Not Active
[H]/N=C(/N)N[C@H]1[C@H](O)[C@@H](O)[C@H](O[C@@H]2O[C@@H](C)[C@](O)(C=O)[C@H]2O[C@@H]2O[C@@H](CO)[C@H](O)[C@@H](O)[C@@H]2NC)[C@@H](N/C(N)=N\[H])[C@@H]1O	Ki	Not Active
COc1ccc2cc([C@H](C)C(=O)O)ccc2c1	Ki	Not Active
CNC(=C[N+](=O)[O-])NCCSCc1ccc(CN(C)C)o1	Ki	Not Active
CCN[C@@H]1C[C@H](N)[C@@H](O[C@H]2OC(CN)=CC[C@H]2N)[C@H](O)[C@H]1O[C@H]1OC[C@](C)(O)[C@H](NC)[C@H]1O	Ki	Not Active
O=C(C1CCCCC1)N1CC(=O)N2CCc3ccccc3C2C1 (stereo not given)	Ki	Not Active
COc1cccc2c1C(=O)c1c(O)c3c(c(O)c1C2=O)C[C@@](O)(C(=O)CO)C[C@@H]3O[C@H]1C[C@H](N)[C@@H](O)[C@H](C)O1 [EPIRUBICIN]	Ki	Not Active
CC1(C)O[C@@H]2C[C@H]3[C@@H]4C[C@H](F)C5=CC(=O)C=C[C@]5(C)[C@@]4(F)[C@@H](O)C[C@]3(C)[C@]2(C(=O)CO)O1 [FLUOCINOLONE ACETONIDE]	Ki	Not Active
COc1ccc2c(c1)c(CC(=O)O)c(C)n2C(=O)c1ccc(Cl)cc1	Ki	Not Active
CC1(C)O[C@@H]2C[C@H]3[C@@H]4C[C@H](F)C5=CC(=O)C=C[C@]5(C)[C@H]4[C@@H](O)C[C@]3(C)[C@]2(C(=O)CO)O1 [FLUNISOLIDE]	Ki	Not Active
C[C@@]12C(=O)OC(=O)[C@]1(C)[C@H]1CC[C@@H]2O1	Ki	Not Active
C[C@]12CC[C@@H]3c4ccc(O)cc4CC[C@H]3[C@@H]1CC[C@@H]2O	Ki	Not Active
CCCC(=O)Nc1ccc(OCC(O)CNC(C)C)c(C(C)=O)c1 (stereo not given)	Ki	Not Active
Nc1ccn([C@@H]2CS[C@H](CO)O2)c(=O)n1	Ki	Not Active
